This section presents compounds with their documented GI50 values.
- Test system: IGROV-1
- protocol_details: NCI tumour cell line growth inhibition, 48 h
Active and inactive are the calls of the source. Cut-off read from the data, not from the text of the source: active = GI50 up to about 1.1 µM and inactive = higher.

{"compound": "CN1CN(c2ccccc2)C2(CCN(Cc3csc4ccccc34)CC2)C1=O", "tested_system": "IGROV-1", "GI50": "10.8 µM (inactive)"}
{"compound": "O=C1c2ccsc2C(=O)c2sc(CO)cc21", "tested_system": "IGROV-1", "GI50": "0.627 µM (active)"}
{"compound": "CCOC(=O)C(=O)/C(=C/NC(=S)Nc1ccc(Cl)c(Cl)c1)C(=O)OCC", "tested_system": "IGROV-1", "GI50": "85.9 µM (inactive)"}
{"compound": "O=C(O)c1ccc(C2SCc3nc4ccccc4n32)cc1 (centres undefined)", "tested_system": "IGROV-1", "GI50": "> 100 µM (inactive)"}
{"compound": "Cc1cc(C)nc(NS(=O)(=O)c2ccc(Nc3c4ccccc4nc4c(C(=O)N5CCN(CCO)CC5)cccc34)cc2)n1", "tested_system": "IGROV-1", "GI50": "> 100 µM (inactive)"}
{"compound": "CSc1cc(Cl)c(C)cc1S(=O)(=O)NC(=O)NNc1ccc(C)cc1", "tested_system": "IGROV-1", "GI50": "> 100 µM (inactive)"}
{"compound": "C=C1C[C@@H]2O[C@H]3[C@H]4[C@@H](C[C@@H](C)[C@@H](OC(C)=O)[C@H]42)[C@@H](C)CO[C@@]3(C)[C@H](OC(=O)CCCCCCC)CC1=O", "tested_system": "IGROV-1", "GI50": "21.5 µM (inactive)"}
{"compound": "C=CCN(c1cc(OC)c2[nH]c(C(=O)OCC)c(C)c2c1[N+](=O)[O-])S(C)(=O)=O", "tested_system": "IGROV-1", "GI50": "33.7 µM (inactive)"}
{"compound": "Nc1ccc(C(=O)c2cn(CCN3CCOCC3)c3ccccc23)c2ccccc12", "tested_system": "IGROV-1", "GI50": "16.1 µM (inactive)"}
{"compound": "CC(C)C(/C=C/c1ccc(Cl)cc1)=N\\NC(=O)N/N=C(/C=C/c1ccc(Cl)cc1)C(C)C", "tested_system": "IGROV-1", "GI50": "28.8 µM (inactive)"}
{"compound": "N#Cc1c(C#N)c(-c2cccc([N+](=O)[O-])c2)n(-c2ccccc2)c1N", "tested_system": "IGROV-1", "GI50": "89.1 µM (inactive)"}
{"compound": "Cc1ccc(/C=C(\\C#N)c2ccccc2)cc1", "tested_system": "IGROV-1", "GI50": "> 100 µM (inactive)"}
{"compound": "CC(=O)OC1C[C@H]2C(OC(=O)c3ccccc3)C3C4(OC(C)=O)COC4C[C@H](OC(C)=O)[C@@]3(C)C(OC(C)=O)[C@H](OC(C)=O)C(=C1C)C2(C)C (some centres undefined)", "tested_system": "IGROV-1", "GI50": "41.8 µM (inactive)"}
{"compound": "Oc1cnc2c(O)cccc2c1", "tested_system": "IGROV-1", "GI50": "20.3 µM (inactive)"}
{"compound": "CC(C)C(C/C=C1/CC(CO)(COC(=O)C2CCCCC2)OC1=O)C(C)C (centres undefined)", "tested_system": "IGROV-1", "GI50": "19.1 µM (inactive)"}
{"compound": "COc1ccc2[nH]cc(CN3CCC(CO)(c4ccccc4)CC3)c2c1", "tested_system": "IGROV-1", "GI50": "38.5 µM (inactive)"}
{"compound": "CCOC(=O)N[C@@H]1C(CC(=O)OC)O[C@H]2OC(C)(C)O[C@H]21 (some centres undefined)", "tested_system": "IGROV-1", "GI50": "> 100 µM (inactive)"}
{"compound": "CN(C)CCCn1c(Cc2ccccc2)nc2cc(C(F)(F)F)ccc21", "tested_system": "IGROV-1", "GI50": "30.2 µM (inactive)"}
{"compound": "O=C1C2C(c3ccccc3)NC(c3ccccc3)C1C(c1ccccc1)NC2c1ccccc1 (centres undefined)", "tested_system": "IGROV-1", "GI50": "> 100 µM (inactive)"}

* * *

In this section, each of the compounds is paired with its reported GI50.
- System: OVCAR-5
- protocol_details: NCI tumour cell line growth inhibition, 48 h
Activity calls are given as the source filed them. No stated cut-off is given here; in the data, active = GI50 up to about 1.1 µM and inactive = higher.
parameter: GI50

{"compound": "CC(C)CC1[C@@H](OCc2ccccc2)COS(=O)N1Cc1ccccc1 (some centres undefined)", "reading": "> 100 µM (inactive)"}
{"compound": "O=C1CN(C(=O)C2CCCN2C(=O)C2CCCN2)C(=O)CN1 (centres undefined)", "reading": "> 100 µM (inactive)"}
{"compound": "O=C(c1cccc2ccccc12)C1(Br)S(=O)(=O)OCCOS1(=O)=O", "reading": "> 100 µM (inactive)"}
{"compound": "CC12CCC([C@H](Nc3cc(C(F)(F)F)cc(C(F)(F)F)c3)C1=O)C2(C)C (some centres undefined)", "reading": "> 100 µM (inactive)"}
{"compound": "COc1ccc2[nH]cc(CN3CCC(CO)(c4ccccc4)CC3)c2c1", "reading": "68.5 µM (inactive)"}
{"compound": "O=C1CCC(c2ccccc2)(c2ccccc2)CC1", "reading": "> 100 µM (inactive)"}
{"compound": "c1ccc(CSc2nnc3c4ccccc4c4ccccc4c3n2)cc1", "reading": "> 100 µM (inactive)"}
{"compound": "CCCN1CN(C(C(=O)N[C@@H]2C(=O)N3C2SC(C)(C)C3C(=O)O)c2ccccc2)CSC1=S (some centres undefined)", "reading": "> 100 µM (inactive)"}
{"compound": "CCCCN(CCCC)CC(C(=O)Nc1ccc([N+](=O)[O-])cc1[N+](=O)[O-])/C(C)=N\\NC(=S)NN (centres undefined)", "reading": "> 100 µM (inactive)"}
{"compound": "C=CCNC(=S)N/C=C(\\C(=O)OCC)C(=O)C(=O)OCC", "reading": "> 100 µM (inactive)"}
{"compound": "CCCOP1(=O)C=CC(Cl)=C(C)C1 (centres undefined)", "reading": "20.7 µM (inactive)"}
{"compound": "COc1ccc2cc3[n+](cc2c1O)CCc1cc2c(cc1-3)OCO2 [BERBERRUBINE CHLORIDE]", "reading": "> 100 µM (inactive)"}
{"compound": "C=C1C(=O)O[C@H]2[C@H]1[C@H](OC(=O)/C(C)=C\\C)C[C@]1(CO1)[C@@H]1[C@H](OC(C)=O)C=C(C)[C@]21O [EUPAROTIN ACETATE]", "reading": "25.4 µM (inactive)"}
{"compound": "C[C@]12CC[C@@H]3c4ccc(OS(N)(=O)=O)cc4CC[C@H]3[C@@H]1CCC2=O [EMATE]", "reading": "> 100 µM (inactive)"}
{"compound": "Oc1cnc2c(O)cccc2c1 [JINEOL]", "reading": "24.9 µM (inactive)"}
{"compound": "C[C@@H]([C@H]1CC[C@@]2(C)[C@@H]3CC[C@@H]4C(=CC3=CC[C@]12C)CC[C@H](N(C)C)C4(C)C)N(C)C [BUXAMINE A]", "reading": "> 100 µM (inactive)"}
{"compound": "COC1=CC(=O)C2C(C1=O)[C@@H]1c3ccccc3OC(C)(C)[C@H]21 (some centres undefined)", "reading": "40.8 µM (inactive)"}
{"compound": "CC[C@@]1(O)C(=O)OCc2c1cc1n(c2=O)Cc2c-1nc1ccccc1c2/C=N\\NC(=O)CN", "reading": "3.24 µM (inactive)"}
{"compound": "COc1cc2c(cc1OC)C(=O)C(C1=C(SC(=N)N)C(=O)c3cc(OC)c(OC)cc31)C2 (centres undefined)", "reading": "> 100 µM (inactive)"}

* * *

- Tested on: T47D
- protocol_details: NCI tumour cell line growth inhibition, 48 h
Calls of active or inactive are those of the source. Rule as the data show it: active = GI50 up to about 1.1 µM and inactive = higher.
List of GI50 values.

{"molecule": "CC(C)CCCC(C)[C@H]1CC[C@H]2N/C(=N/c3ccccc3)CCC[C@]12C (stereo partly specified)", "GI50": "3.09 µM (inactive)"}
{"molecule": "Cc1cn([C@@H]2C[C@@H]2CO)c(=O)[nH]c1=O", "GI50": "> 100 µM (inactive)"}
{"molecule": "COc1ccc(CCNC(=O)Cc2ccccc2CCO)cc1OC", "GI50": "> 100 µM (inactive)"}
{"molecule": "CC1CN=C(N(C)C(=O)Nc2ccc(Cl)c(Cl)c2)S1 (stereo unspecified)", "GI50": "19.3 µM (inactive)"}
{"molecule": "CC(=O)NNc1nc(C)c(C(/C=C/c2cccc([N+](=O)[O-])c2)=N/NC(=S)NN)s1", "GI50": "> 100 µM (inactive)"}
{"molecule": "Cn1c2ccccc2c(=NNc2ccc(C(=O)O)cc2)c2ccccc21", "GI50": "13.4 µM (inactive)"}
{"molecule": "CCN(CC)CCNc1nc(N)c(C#N)c(C#N)c1C#N", "GI50": "> 10 µM (inactive)"}
{"molecule": "CC(O)C1(CNc2cc(Cl)nc(N)n2)CCC1 (stereo unspecified)", "GI50": "33.3 µM (inactive)"}
{"molecule": "CCOC(=O)C1=CNC2=N[C@H]3CCCC[C@@H]3N2C1=O", "GI50": "> 100 µM (inactive)"}
{"molecule": "COc1cc2c(c(O)c1OC)C(O)C1CCC(=O)N1C2c1cccc2ccccc12 (stereo unspecified)", "GI50": "> 100 µM (inactive)"}
{"molecule": "COC(=O)C(Cc1cn(C(C)=O)c2ccccc12)P(=O)(OC)OC (stereo unspecified)", "GI50": "> 100 µM (inactive)"}
